Molecular target: UniProtKB P32245
Test: Agonist activity at human recombinant MC4 receptor expressed in CHO cells by cAMP responsive beta lactamase reporter gene assay
pEC50: −log10 of the molar value.
observationType: pEC50

Sample answers from the record:
| cpdSmiles | pEC50 |
| --- | --- |
| C[C@@H]1CN(C(=O)[C@@H]2CN(C(C)(C)C)C[C@H]2c2ccc(F)cc2F)C[C@H](C)[C@@]1(O)c1ccc(Cl)cc1 | 7.52 |
| C[C@@H]1CN(C(=O)[C@H]2CN(c3ccccn3)C[C@@H]2c2ccc(F)cc2F)C[C@H](C)[C@@]1(O)c1ccccc1 | 7.82 |

[A] CC(C)N1C[C@@H](C(=O)N2C[C@@H](C)[C@](O)(c3ccc(F)cc3)[C@@H](C)C2)[C@H](c2ccc(F)cc2F)C1
[B] C[C@@H]1CN(C(=O)[C@@H]2CN(C(C)(C)C)C[C@H]2c2ccc(F)cc2F)C[C@H](C)[C@@]1(O)c1ccc(F)cc1.Cl
[C] C[C@@H]1CN(C(=O)[C@@H]2CN(C(C)(C)C)C[C@H]2c2ccc(F)cc2F)C[C@H](C)[C@@]1(O)C1CC1
Exercise: Sort (3 compounds) by pEC50: min first. Hello, could you send the labels back in the order asked? Thank you.
Solution: C, A, B
(C: 6.02, A: 7.28, B: 7.74)

* * *

Target: Melanocortin receptor 3 (Homo sapiens, UniProt P41968)
Sequence (P41968 whole entry, the tested form may be a part): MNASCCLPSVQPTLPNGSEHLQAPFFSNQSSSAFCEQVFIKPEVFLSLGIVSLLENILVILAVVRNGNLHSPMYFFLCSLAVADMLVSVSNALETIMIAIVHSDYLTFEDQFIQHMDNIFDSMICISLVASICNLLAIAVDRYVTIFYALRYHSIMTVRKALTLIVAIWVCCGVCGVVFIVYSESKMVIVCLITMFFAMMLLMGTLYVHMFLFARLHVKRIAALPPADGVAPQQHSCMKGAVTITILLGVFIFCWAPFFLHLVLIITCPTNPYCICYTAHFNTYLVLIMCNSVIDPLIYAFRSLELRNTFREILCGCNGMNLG
Assay: Agonist activity at human recombinant MC3 receptor expressed in CHO cells assessed as cAMP accumulation by enzyme fragment complementation assay relative to […]
Format: functional, cell-based
observationType: Emax (%)

| cpdSmiles | target | Emax, % |
| --- | --- | --- |
| C[C@@H]1CN(C(=O)[C@@H]2CN(C(C)(C)C)C[C@H]2c2ccc(F)cc2F)C[C@H](C)[C@@]1(O)c1ccc(F)cc1.Cl | Melanocortin receptor 3 (Homo sapiens, UniProt P41968) | 79 |
| C[C@@H]1CN(C(=O)[C@@H]2CN(C(C)(C)C)C[C@H]2c2ccc(F)cc2F)C[C@H](C)[C@@]1(O)c1cccc(F)c1 | Melanocortin receptor 3 (Homo sapiens, UniProt P41968) | 81 |
| C[C@@H]1CN(C(=O)[C@H]2CN(C3CCC3)C[C@@H]2c2ccc(F)cc2F)C[C@H](C)[C@@]1(O)c1ccccc1 | Melanocortin receptor 3 (Homo sapiens, UniProt P41968) | 81 |
| CCC[C@@]1(O)[C@H](C)CN(C(=O)[C@H]2CN(c3cccnn3)C[C@@H]2c2ccc(F)cc2F)C[C@@H]1C | Melanocortin receptor 3 (Homo sapiens, UniProt P41968) | 79 |
| C[C@@H]1CN(C(=O)[C@H]2CN(c3ccccn3)C[C@@H]2c2ccc(F)cc2F)C[C@H](C)[C@@]1(O)c1ccccc1 | Melanocortin receptor 3 (Homo sapiens, UniProt P41968) | 78 |

* * *

Experiment: Lipophilicity, log D at pH 7.4
Format: physicochemical
Conditions: buffer
observationType: logD

| cpdSmiles | logD |
| --- | --- |
| C[C@@H]1CN(C(=O)[C@@H]2CN(C(C)(C)C)C[C@H]2c2ccc(F)cc2F)C[C@H](C)[C@@]1(O)c1ccc(Cl)cc1 | 3.9 |

[I] C[C@@H]1CN(C(=O)[C@@H]2CN(C(C)(C)C)C[C@H]2c2ccc(F)cc2F)C[C@H](C)[C@@]1(O)c1ccc(C(F)(F)F)cc1
[II] C[C@@H]1CN(C(=O)[C@@H]2CN(C(C)(C)C)C[C@H]2c2ccc(F)cc2F)C[C@H](C)[C@@]1(O)c1ccccc1.Cl
[III] C[C@@H]1CN(C(=O)[C@@H]2CNC[C@H]2c2ccc(F)cc2F)C[C@H](C)[C@@]1(O)c1ccc(F)cc1
Exercise: Thanks in advance: please rank these 3 entries by logD, highest to lowest. Hello, could you send the labels back in the order asked? Thank you.
Solution: I, II, III

* * *

Target: Voltage-gated inwardly rectifying potassium channel KCNH2 (Homo sapiens, UniProt Q12809)
Sequence (Q12809 whole entry): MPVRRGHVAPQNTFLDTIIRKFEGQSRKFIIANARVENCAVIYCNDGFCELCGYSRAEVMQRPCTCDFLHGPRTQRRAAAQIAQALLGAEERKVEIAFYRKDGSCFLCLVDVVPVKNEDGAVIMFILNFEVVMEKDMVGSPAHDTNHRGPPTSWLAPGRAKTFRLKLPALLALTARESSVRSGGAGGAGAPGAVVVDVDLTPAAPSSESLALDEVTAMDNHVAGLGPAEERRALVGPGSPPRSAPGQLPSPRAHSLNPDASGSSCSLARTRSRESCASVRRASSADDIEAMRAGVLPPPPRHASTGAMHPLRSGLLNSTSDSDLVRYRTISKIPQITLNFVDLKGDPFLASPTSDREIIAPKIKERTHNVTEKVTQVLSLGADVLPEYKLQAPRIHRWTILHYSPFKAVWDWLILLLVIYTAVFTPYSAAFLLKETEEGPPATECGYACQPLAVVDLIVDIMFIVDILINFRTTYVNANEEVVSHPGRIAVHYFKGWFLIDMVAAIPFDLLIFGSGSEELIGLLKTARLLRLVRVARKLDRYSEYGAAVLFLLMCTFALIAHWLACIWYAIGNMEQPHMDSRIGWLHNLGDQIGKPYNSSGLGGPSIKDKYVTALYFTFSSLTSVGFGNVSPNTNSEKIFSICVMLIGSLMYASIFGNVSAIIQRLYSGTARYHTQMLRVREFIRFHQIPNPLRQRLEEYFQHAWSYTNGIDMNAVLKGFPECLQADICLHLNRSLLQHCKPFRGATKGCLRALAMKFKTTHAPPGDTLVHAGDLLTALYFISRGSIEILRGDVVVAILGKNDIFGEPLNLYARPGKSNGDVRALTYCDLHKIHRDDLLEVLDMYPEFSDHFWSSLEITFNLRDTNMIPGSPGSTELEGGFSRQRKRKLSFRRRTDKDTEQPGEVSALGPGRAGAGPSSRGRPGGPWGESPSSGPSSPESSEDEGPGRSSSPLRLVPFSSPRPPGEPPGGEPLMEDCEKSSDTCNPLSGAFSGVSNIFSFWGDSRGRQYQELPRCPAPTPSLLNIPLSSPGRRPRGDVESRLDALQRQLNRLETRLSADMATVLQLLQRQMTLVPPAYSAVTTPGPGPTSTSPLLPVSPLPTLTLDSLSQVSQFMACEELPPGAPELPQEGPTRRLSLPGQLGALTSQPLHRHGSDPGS
Assay: Displacement of [3H]dofetilide from human ERG expressed in CHO cells by patch clamp method
pKi: −log10 of the molar value.
# pKi values compiled below

Sample answers from the record:
| cpdSmiles | observationType | experimentalValue |
| --- | --- | --- |
| C[C@@H]1CN(C(=O)[C@H]2CN(c3ccncn3)C[C@@H]2c2ccc(F)cc2F)C[C@H](C)[C@@]1(O)c1ccccc1 | pKi | < 5.00 |
| C[C@@H]1CN(C(=O)[C@H]2CN(C3CCOCC3)C[C@@H]2c2ccc(F)cc2F)C[C@H](C)[C@@]1(O)c1ccccc1 | pKi | < 5.28 |
| C[C@@H]1CN(C(=O)[C@@H]2CN(C(C)(C)C)C[C@H]2c2ccc(F)cc2F)C[C@H](C)[C@@]1(O)c1ccc(Cl)cc1 | pKi | < 5.00 |
| CC(C)N1C[C@@H](C(=O)N2C[C@@H](C)[C@](O)(c3ccccc3)[C@@H](C)C2)[C@H](c2ccc(F)cc2F)C1 | pKi | < 5.10 |

Please turn your attention to the following entry.
Exercise: GET /values?readout=pKi&system=Voltage-gated inwardly rectifying potassium channel KCNH2 (Homo sapiens, UniProt Q12809)&item= "C[C@@H]1CN(C(=O)[C@H]2CN(C3CC3)C[C@@H]2c2ccc(F)cc2F)C[C@H](C)[C@@]1(O)c1ccccc1"
Solution: < 5.04

* * *

Molecular target: Melanocortin receptor 4 (Homo sapiens, UniProt P32245)
Sequence (P32245 whole entry): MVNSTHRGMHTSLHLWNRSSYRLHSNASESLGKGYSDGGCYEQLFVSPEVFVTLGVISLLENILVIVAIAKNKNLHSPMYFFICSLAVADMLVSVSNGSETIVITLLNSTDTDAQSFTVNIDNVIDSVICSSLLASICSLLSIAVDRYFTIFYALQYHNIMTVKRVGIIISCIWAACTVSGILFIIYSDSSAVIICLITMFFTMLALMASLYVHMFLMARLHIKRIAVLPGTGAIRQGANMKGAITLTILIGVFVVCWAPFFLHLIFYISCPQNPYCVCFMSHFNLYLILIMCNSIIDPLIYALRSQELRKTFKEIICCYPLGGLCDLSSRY
Experiment: Agonist activity at human recombinant MC4 receptor expressed in CHO cells by cAMP responsive beta lactamase reporter gene assay
Format: functional, cell-based
observationType: EC50 (nM)

| cpdSmiles | target | unit | experimentalValue |
| --- | --- | --- | --- |
| C[C@@H]1CN(C(=O)[C@@H]2CN(C(C)(C)C)C[C@H]2c2ccc(F)cc2F)C[C@H](C)[C@@]1(O)c1cncnc1 | Melanocortin receptor 4 (Homo sapiens, UniProt P32245) | nM | 11100 |

[P] C[C@@H]1CN(C(=O)[C@@H]2CN(C(C)(C)C)C[C@H]2c2ccc(F)cc2F)C[C@H](C)[C@@]1(O)c1ccccn1
[Q] CC(C)N1C[C@@H](C(=O)N2C[C@@H](C)[C@](O)(c3ccc(F)c(F)c3)[C@@H](C)C2)[C@H](c2ccc(F)cc2F)C1
Exercise: Min EC50? P | Q Kindly give the label for the entry you pick.
Solution: P
(P: 46 nM, Q: 257 nM)

* * *

Molecular target: UniProt P33032
Sequence (P33032 whole entry): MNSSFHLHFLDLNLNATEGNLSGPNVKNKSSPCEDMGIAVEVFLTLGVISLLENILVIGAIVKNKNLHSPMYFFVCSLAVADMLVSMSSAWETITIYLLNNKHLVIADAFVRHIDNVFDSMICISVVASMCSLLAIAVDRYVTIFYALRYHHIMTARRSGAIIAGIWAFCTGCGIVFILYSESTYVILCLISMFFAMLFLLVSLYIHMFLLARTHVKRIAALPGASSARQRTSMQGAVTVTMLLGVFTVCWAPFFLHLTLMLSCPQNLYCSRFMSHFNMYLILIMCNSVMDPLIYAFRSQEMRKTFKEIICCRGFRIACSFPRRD
Assay: Agonist activity at human recombinant MC5 receptor expressed in HEK293 cells assessed as cAMP accumulation by beta lactamase reporter gene assay
observationType: EC50 (µM)

| cpdSmiles | unit | EC50 |
| --- | --- | --- |
| CC(C)N1C[C@@H](C(=O)N2C[C@@H](C)[C@](O)(c3ccccc3)[C@@H](C)C2)[C@H](c2ccc(F)cc2F)C1 | µM | 3.64 |

[P] C[C@@H]1CN(C(=O)[C@@H]2CN(C)C[C@H]2c2ccc(F)cc2F)C[C@H](C)[C@@]1(O)c1ccc(F)cc1
[Q] C[C@@H]1CN(C(=O)[C@@H]2CN(C(C)(C)C)C[C@H]2c2ccc(F)cc2F)C[C@H](C)[C@@]1(O)c1ccccc1.Cl
Exercise: Which record would sort first by descending EC50, P or Q ? Kindly give the label for the entry you pick.
Solution: P
(P: 15 µM, Q: 1.98 µM)

* * *

Assay: Lipophilicity, log D at pH 7.4
Type: physicochemical
Conditions: buffer
observationType: logD

| cpdSmiles | observationType | experimentalValue |
| --- | --- | --- |
| C[C@@H]1CN(C(=O)[C@@H]2CN(C(C)(C)C)C[C@H]2c2ccc(F)cc2F)C[C@H](C)[C@@]1(O)c1ccc(F)cc1.Cl | logD | 3.1 |
| C[C@@H]1CN(C(=O)[C@H]2CN(c3cccnn3)C[C@@H]2c2ccc(F)cc2F)C[C@H](C)[C@@]1(O)c1ccccn1 | logD | 3 |
| COCCN1C[C@H](C(=O)N2C[C@@H](C)[C@](O)(c3ccccc3)[C@@H](C)C2)[C@@H](c2ccc(F)cc2F)C1 | logD | 3.1 |
| CC(C)N1C[C@@H](C(=O)N2C[C@@H](C)[C@](O)(c3ccc(F)c(F)c3)[C@@H](C)C2)[C@H](c2ccc(F)cc2F)C1 | logD | 3.3 |
| C[C@@H]1CN(C(=O)[C@H]2CN(C3CCOCC3)C[C@@H]2c2ccc(F)cc2F)C[C@H](C)[C@@]1(O)c1ccccc1 | logD | 3.1 |
| C[C@@H]1CN(C(=O)[C@H]2CN(c3cccnn3)C[C@@H]2c2ccc(F)cc2F)C[C@H](C)[C@@]1(O)c1ccc(F)cc1 | logD | 3.7 |
| C[C@@H]1CN(C(=O)[C@@H]2CN(C(C)(C)C)C[C@H]2c2ccc(F)cc2F)C[C@H](C)[C@@]1(O)c1cccc(F)c1 | logD | 3.3 |
